# EXPERIMENT_DESCRIPTION: Half life in human liver microsomes
# Format: ADME, Microsome
Assign half-life to each entry below.
// return the numeric value with its unit appended

Give measured half-life for every item shown.
1. C=C[C@@H]1C[C@]1(NC(=O)[C@@H]1C[C@@H](c2nc(-c3ccccc3)cs2)CN1C(=O)[C@@H](NC(=O)OC1CCCC1)C(C)(C)C)C(=O)NS(=O)(=O)C1CC1
2. C=C[C@@H]1C[C@]1(NC(=O)[C@@H]1C[C@@H](n2cnc(-c3ccccc3)c2)CN1C(=O)[C@@H](NC(=O)OC1CCCC1)C(C)(C)C)C(=O)NS(=O)(=O)C1CC1
3. C=C[C@@H]1C[C@]1(NC(=O)[C@@H]1C[C@@H](n2cc(-c3ccccc3)c(C)n2)CN1C(=O)[C@@H](NC(=O)OC1CCCC1)C(C)(C)C)C(=O)NS(=O)(=O)C1CC1

Solution:
["2.38 h", "3.68 h", "0.1 h"]
